- Test system: High affinity nerve growth factor receptor (Homo sapiens), P04629 [G595R]
- Sequence (P04629 whole entry G595R, looked up): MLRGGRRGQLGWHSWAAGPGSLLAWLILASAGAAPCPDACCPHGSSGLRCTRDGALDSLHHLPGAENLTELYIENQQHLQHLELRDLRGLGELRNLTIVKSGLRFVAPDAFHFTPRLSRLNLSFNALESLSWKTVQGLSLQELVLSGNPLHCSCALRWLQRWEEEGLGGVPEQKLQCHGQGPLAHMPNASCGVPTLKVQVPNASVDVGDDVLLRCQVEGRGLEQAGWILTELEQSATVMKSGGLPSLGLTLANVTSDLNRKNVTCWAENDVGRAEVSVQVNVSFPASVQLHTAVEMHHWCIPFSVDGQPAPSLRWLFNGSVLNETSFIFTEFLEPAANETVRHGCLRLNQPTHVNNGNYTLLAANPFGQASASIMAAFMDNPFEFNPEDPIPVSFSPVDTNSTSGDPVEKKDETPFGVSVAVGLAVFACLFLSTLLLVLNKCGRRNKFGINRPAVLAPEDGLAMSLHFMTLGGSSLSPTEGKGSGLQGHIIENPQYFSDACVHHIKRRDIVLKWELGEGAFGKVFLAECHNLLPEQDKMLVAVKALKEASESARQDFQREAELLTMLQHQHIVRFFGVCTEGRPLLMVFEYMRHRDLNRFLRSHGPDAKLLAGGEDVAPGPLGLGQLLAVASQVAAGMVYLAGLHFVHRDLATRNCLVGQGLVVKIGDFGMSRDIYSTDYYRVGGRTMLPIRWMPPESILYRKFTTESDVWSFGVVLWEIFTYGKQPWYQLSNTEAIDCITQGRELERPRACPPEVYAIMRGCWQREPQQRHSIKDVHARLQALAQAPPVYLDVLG
- TEST: Inhibition of TRKA G595R mutant (unknown origin) at 500 nM
READOUT_LABEL: inhibition (%)

[[record]]
structure_smiles_string = "C[C@H]1CNCc2cnn3ccc(nc23)N(C)Cc2cc(F)ccc2O1"
val = 85.6

[[record]]
structure_smiles_string = "CC(=O)N1CCCOc2cccc(c2)CN(C)c2ccn3ncc(c3n2)C1"
val = 2.7

[[record]]
structure_smiles_string = "CN1Cc2cccc(c2)OCCCN(S(=O)(=O)CCl)Cc2cnn3ccc1nc23"
val = 28.1

[[record]]
structure_smiles_string = "CN1Cc2cc(F)ccc2OCCCNCc2cnn3ccc1nc23"
val = 6.3

[[record]]
structure_smiles_string = "C=CC(=O)N1CCCOc2cccc(c2)CN(C)c2ccn3ncc(c3n2)C1"
val = 6.3

[[record]]
structure_smiles_string = "CN1Cc2cc(F)ccc2OCCN(C(=O)CCl)Cc2cnn3ccc1nc23"
val = 56.3

